Data provenance is ChEMBL document CHEMBL3259675.

- Assay Protocol: Cmax in Sprague-Dawley rat at 5 mg/kg, iv administered as single dose
- Assay type: ADME, organism-based
- Design: dose 5 mg/kg, route intravenous
- Condition Info: in vivo
Endpoint: Cmax (µM)
Dear colleague, please return just the value in µM, with no unit written.

(Q) Dear colleague, I am looking for the recorded Cmax of the following compound: `OCCCC[C@@H]1[C@H]2CCCN3CCC[C@H](CN1Cc1ccc(Cl)cc1)[C@@H]23`
(A) 3.43

----------
- System: MCF7
- Assay Protocol: Antiproliferative activity against human MCF7 cells assessed as growth inhibition after 48 hrs by MTT assay
- Format: functional, cell-based
- Condition Info: MCF7, 48 h
Task for the reader: assign each of the following molecules its reported IC50.
Dear colleague, please return just the value in µM, with no unit written.

(Q) Dear colleague, I am looking for the recorded IC50 of the following molecule: CC[C@@]1(O)C(=O)OCc2c1cc1n(c2=O)Cc2cc3c(CN(C)C)c(O)ccc3nc2-1 [TOPOTECAN]
(A) 14.3

(Q) Dear colleague, I am looking for the recorded IC50 of the following molecule: `COC(=O)CCC[C@@H]1[C@H]2CCCN3CCC[C@H](CN1Cc1ccc(Cl)cc1)[C@@H]23`
(A) 20

(Q) Dear colleague, I am looking for the recorded IC50 of the following molecule: `OCCCC[C@@H]1[C@H]2CCCN3CCC[C@H](CN1Cc1ccc(Cl)cc1)[C@@H]23`
(A) 5.73

----------
- Tested on: HepG2
- Assay Protocol: Antiproliferative activity against human HepG2 cells assessed as growth inhibition at 10 ug/ml after 48 hrs by MTT assay
- Assay type: functional
- Condition Info: HepG2, 48 h
Task for the reader: assign each of the following compounds its reported inhibition at 10 µg/mL.
Dear colleague, please return just the value in %, with no unit written.

(Q) Checklist item: inhibition at 10 µg/mL tested on HepG2, entry `O=C(O)CCC[C@@H]1[C@H]2CCCN3CCC[C@H](CN1Cc1ccc(Cl)cc1)[C@@H]23` , value?
(A) 3.5

(Q) Checklist item: inhibition at 10 µg/mL tested on HepG2, entry `CCOCCCC[C@@H]1[C@H]2CCCN3CCC[C@H](CN1Cc1ccc(Cl)cc1)[C@@H]23` , value?
(A) 0.2

(Q) Checklist item: inhibition at 10 µg/mL tested on HepG2, entry `OCCCC[C@@H]1[C@H]2CCCN3CCC[C@H](CN1Cc1ccc(Cl)cc1)[C@@H]23` , value?
(A) 87.7

(Q) Checklist item: inhibition at 10 µg/mL tested on HepG2, entry `COC(=O)CCC[C@@H]1[C@H]2CCCN3CCC[C@@H](CN1Cc1ccc(F)cc1)[C@@H]23` , value?
(A) 0.8

(Q) Checklist item: inhibition at 10 µg/mL tested on HepG2, entry `OCCCC[C@@H]1[C@H]2CCCN3CCC[C@@H](CN1Cc1ccc(F)cc1)[C@@H]23` , value?
(A) 0.1

(Q) Checklist item: inhibition at 10 µg/mL tested on HepG2, entry `COCCCC[C@@H]1[C@H]2CCCN3CCC[C@H](CN1Cc1ccc(F)cc1)[C@@H]23` , value?
(A) 6.8

(Q) Checklist item: inhibition at 10 µg/mL tested on HepG2, entry `OCCCC[C@@H]1[C@H]2CCCN3CCC[C@@H](CN1Cc1ccccc1)[C@@H]23` , value?
(A) 31

(Q) Checklist item: inhibition at 10 µg/mL tested on HepG2, entry `COC(=O)CCC[C@@H]1[C@H]2CCCN3CCC[C@H](CN1Cc1cccc(F)c1)[C@@H]23` , value?
(A) 81.8
